For each of the compounds below, state its Avg. POC.
- Measurement target: SGK1 (Homo sapiens (Human))
- Sequence (O00141 whole entry): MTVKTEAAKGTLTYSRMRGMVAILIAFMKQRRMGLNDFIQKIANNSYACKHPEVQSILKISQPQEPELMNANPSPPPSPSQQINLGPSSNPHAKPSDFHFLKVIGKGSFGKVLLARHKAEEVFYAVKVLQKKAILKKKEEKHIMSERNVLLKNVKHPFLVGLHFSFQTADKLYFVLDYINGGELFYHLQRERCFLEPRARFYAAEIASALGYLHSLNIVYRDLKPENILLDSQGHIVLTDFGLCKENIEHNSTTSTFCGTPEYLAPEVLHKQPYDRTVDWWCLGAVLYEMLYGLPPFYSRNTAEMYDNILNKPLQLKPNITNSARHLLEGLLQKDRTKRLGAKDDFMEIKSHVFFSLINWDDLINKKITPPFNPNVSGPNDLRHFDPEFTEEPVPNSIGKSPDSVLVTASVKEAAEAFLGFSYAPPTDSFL
- Assay remarks: KinaseProfiler off-target kinase profiling
- Format: biochemical
- Condition summary: 10 μM, ATP near Km
Answers are plain numbers, in POC.

Compound	Result number
Cc1c(-c2ccc(=O)n(C)c2)nn(-c2ccccc2)c1NC(=O)NC1CN(CC(F)(F)F)Cc2ccccc21 (stereo not shown)	97.5
Cc1c(-c2cnn(C)c2)nn(-c2ccccc2)c1NC(=O)NC1CCOc2cc(F)ccc21 (stereo not shown)	129
COCc1ccc2c(c1)C(NC(=O)Nc1c(C)c(-c3cnn(C)c3)nn1-c1ccccc1)COC2 (stereo not shown)	119

Notebook: Cc1c(-c2cnn(C)c2)nn(-c2ccccc2)c1NC(=O)N[C@H]1CCCc2ccccc21 , Avg. POC read as 150
